Cited source: patent US20220259593A1

Please respond with reported Mean relative activity for every item in the list.
test system: K562 CRISPRi cells; experiment: Constant region variant library pooled growth screen, K562; assay type: cell-based, human; details: sgRNA constant region variants; relative to the original, un-modified constant region cr995 (= 1)
// return a plain number; no unit text

**Q:** Quick one: Mean relative activity for cr774 (nucleic acid, listed as DNA, chemistry not fully specified) guide: GTTTAAGAGCTAAGCTGGACACAGCATAGCAAGTTTAAATAAGGCTAGTCCGTTATCAACTTGAAAAAGTGGCACCGAGTCGGTGCT ?
**A:** 0.9968

**Q:** What does the data say about its Mean relative activity? Entry: cr510 (nucleic acid, listed as DNA, chemistry not fully specified) guide: GTTTAAGAGCTAAGCTGGAAACAGCATAGCAAGTTTAAATAAGGCTAGTCCGTTATCATGTTGAAAAACAGGCACCGAGTCGGTGCT
**A:** 1.007

**Q:** // Mean relative activity lookup, key: cr968 (nucleic acid, listed as DNA, chemistry not fully specified) guide: GTTTAAGAGCTAAGCTGGAAACAGCATAGCAAGTTTAAATAAGGCTAGTCCGTTATCAACTTGAAAAAGTGGAACCGAGTCGGTTCT
**A:** 1.004

**Q:** What does the data say about its Mean relative activity? Entry: cr557 (nucleic acid, listed as DNA, chemistry not fully specified) guide: GTTTAAGAGCTAAGCTGGCAACAGCATAGCAAGTTTAAATAAGGCTAGTCCGTTATCAACTTGAAAAAGTGGCACCGAGTCGGTGCT
**A:** 1.018
